Origin of measurements: patent US20240252488A1

// reported Degradation assay (Degradation %) 10 μM for each item listed
Target: MLKL (Homo sapiens)
Sequence (Q8NB16 1-471): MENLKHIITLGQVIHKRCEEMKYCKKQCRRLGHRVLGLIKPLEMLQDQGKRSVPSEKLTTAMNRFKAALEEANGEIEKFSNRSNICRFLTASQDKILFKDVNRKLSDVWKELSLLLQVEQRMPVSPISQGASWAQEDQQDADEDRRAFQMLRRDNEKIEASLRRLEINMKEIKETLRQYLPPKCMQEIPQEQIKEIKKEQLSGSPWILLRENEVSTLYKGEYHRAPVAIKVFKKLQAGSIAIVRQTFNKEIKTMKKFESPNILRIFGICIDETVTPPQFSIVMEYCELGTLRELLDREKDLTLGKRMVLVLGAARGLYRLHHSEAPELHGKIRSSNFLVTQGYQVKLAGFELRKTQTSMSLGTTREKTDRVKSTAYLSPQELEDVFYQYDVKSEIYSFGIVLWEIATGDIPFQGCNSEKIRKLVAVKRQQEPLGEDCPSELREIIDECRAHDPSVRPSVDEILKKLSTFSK
Experiment: MLKL degradation assay in HepG2 cell line (western blot)
Type: cell-based
Parameters: endogenous in cells; host or cells: HepG2 or HaCaT
Conditions: compound 10 μM; cell line not given

Below, each entry is followed by its recorded Degradation assay (Degradation %) 10 μM result.
Molecule	Value
Nc1ncc(-c2cnn(C3CCN(CCOC4CCN(C(=O)c5cccc(C(=O)NC6CCC(=O)NC6=O)c5)CC4)CC3)c2)nc1C(=O)O[C@@H](C(=O)Nc1ccc(F)cc1)c1ccccc1 (stereo partly drawn)	74.02%
Nc1ncc(-c2cnn([C@H]3CCN(CCOCCOCCNC(=O)CNc4ccc5c(c4)C(=O)N(C4CCC(=O)NC4=O)C5=O)C3)c2)nc1C(=O)OC(C(=O)Nc1ccc(F)cc1)c1ccccc1 (stereo partly drawn)	53.98%

Now take the following molecule into account.
Measured Degradation assay (Degradation %) 10 μM for this entry Nc1ncc(-c2cnn(C3CCN(CCCCCCNC(=O)C4CN(c5cccc6c5C(=O)N(C5CCC(=O)NC5=O)C6=O)C4)CC3)c2)nc1C(=O)O[C@@H](C(=O)Nc1ccc(F)cc1)c1ccccc1 (stereo partly drawn) on MLKL (Homo sapiens): 19.24%
